assayed_system: endogenously expressed human MSR1 on PMA-treated THP-1 cells (human) (UniProt P21757)
Sequence (P21757 whole entry): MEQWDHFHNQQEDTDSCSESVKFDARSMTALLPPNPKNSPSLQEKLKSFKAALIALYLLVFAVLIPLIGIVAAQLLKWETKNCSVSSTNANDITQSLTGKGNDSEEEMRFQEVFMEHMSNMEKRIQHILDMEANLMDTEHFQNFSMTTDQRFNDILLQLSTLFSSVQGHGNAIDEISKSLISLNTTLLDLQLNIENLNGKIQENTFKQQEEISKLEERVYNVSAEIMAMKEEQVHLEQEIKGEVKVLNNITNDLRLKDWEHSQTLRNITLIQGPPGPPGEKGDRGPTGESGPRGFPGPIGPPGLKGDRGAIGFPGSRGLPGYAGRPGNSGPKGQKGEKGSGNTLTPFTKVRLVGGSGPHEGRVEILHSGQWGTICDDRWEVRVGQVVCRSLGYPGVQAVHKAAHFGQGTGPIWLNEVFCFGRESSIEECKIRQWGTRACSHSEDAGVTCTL
assay_comment: ECL cell binding, PMA-treated THP-1 cells, 11 nM
readout_label: ratio of binding signal (RLU) to isotype control

* H1H21227N-N297D (antibody, human IgG1, V domains shown) VH: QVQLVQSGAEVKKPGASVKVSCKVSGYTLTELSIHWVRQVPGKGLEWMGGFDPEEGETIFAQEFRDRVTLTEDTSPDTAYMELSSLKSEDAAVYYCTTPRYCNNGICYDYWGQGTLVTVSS VL: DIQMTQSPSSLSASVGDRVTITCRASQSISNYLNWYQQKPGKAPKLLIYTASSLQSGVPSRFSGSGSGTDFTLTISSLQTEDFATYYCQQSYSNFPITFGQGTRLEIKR | 6 fold
* H1H21234N (antibody, human IgG1, V domains shown) VH: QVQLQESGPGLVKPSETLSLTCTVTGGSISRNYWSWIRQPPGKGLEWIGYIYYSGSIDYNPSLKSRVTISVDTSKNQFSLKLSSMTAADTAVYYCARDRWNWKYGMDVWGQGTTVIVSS VL: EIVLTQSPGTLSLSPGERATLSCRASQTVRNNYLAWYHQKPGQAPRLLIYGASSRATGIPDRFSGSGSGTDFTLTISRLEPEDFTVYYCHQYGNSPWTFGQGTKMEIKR | 18 fold
* H2aM25695N (antibody, mouse IgG2a, V domains shown) VH: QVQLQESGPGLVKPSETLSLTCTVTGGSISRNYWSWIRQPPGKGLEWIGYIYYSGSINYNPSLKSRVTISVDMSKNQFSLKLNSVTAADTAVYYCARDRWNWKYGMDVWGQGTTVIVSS VL: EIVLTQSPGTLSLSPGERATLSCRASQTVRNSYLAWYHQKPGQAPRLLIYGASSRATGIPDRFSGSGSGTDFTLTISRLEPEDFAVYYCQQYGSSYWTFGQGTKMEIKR | 8 fold

Origin of measurements: patent US20190367631A1
